This collection of values is drawn from paper PMC6767403.

Test system: HepG2 human liver cells
PROTOCOL NOTES: HepG2 cytotoxicity, CellTiter-Glo, 72 hr
MEASUREMENT CONDITIONS: HepG2, 72 h, read-out: HepG2 IC50
PROPERTY LABEL: IC50 (µM)
Give the number; µM is assumed, so skip it.

Would you please look over these solved cases?
Record Oc1ccc(Br)c2cccnc12 , field IC50: 6.9

// Nc1ccc2cccc(O)c2n1 : IC50 value = 12

What the record says about Cc1ccc2cccc(O)c2n1 : IC50 is 28

***
Item: COc1ccccc1/C=C/c1ccc2cccc(O)c2n1 | IC50: 12

Field IC50 (entry Oc1cccc2ccc(/C=C/c3ccc4c(c3)OCO4)nc12 ) reads 9.1

IC50 in this record for Oc1c(Cl)cc(Cl)c2cccnc12 : 7.6

Recorded result, Oc1cccc2ccc(Nc3ccccc3)nc12 , IC50: 3.8

get_value(item= CC(=O)Nc1ccc2cccc(O)c2n1 , readout=IC50) returns 9

Measured IC50 of Oc1cccc2ccc(/C=C/c3ccccc3Cl)nc12 : 12

Please fill in: IC50 reported for O=[N+]([O-])c1ccc(O)c2ncccc12 = 7.7

Entry COc1cccc(/C=C/c2ccc3cccc(O)c3n2)c1 ; IC50 = 10

Quick note, IC50 for Cc1cc(C)n(-c2ccc3cccc(O)c3n2)n1 landed at 12

Documented IC50 of CNc1ccc2cccc(O)c2n1 : 22

Recorded result, Cc1ccc(O)c2ncccc12 , IC50: 6.5

So for Oc1cccc2cccnc12 [Compound 1, 8‐hydroxyquinoline] , the logged IC50 turned out to be 7.6

====

PROTOCOL NOTES: Vero cell cytotoxicity, CellTiter-Glo, 2 days
Format: cell-based
MEASUREMENT CONDITIONS: African green monkey, Vero cells (CCL81), 2 days exposure
Catalogue of IC50 at 2 days readings, one per entry.
Provide only the numeric value, understood in µM.

// below: answered compounds
Per the record, CC(=O)Nc1ccc2cccc(O)c2n1 has IC50 at 2 days of 4.9

Consider Oc1ccc(Cl)c2cccnc12 . Its measured IC50 at 2 days is 2.4

Notebook: Oc1c(Cl)cc(Cl)c2cccnc12 , IC50 at 2 days read as 1.3

More entries:
Recorded IC50 at 2 days (compound COc1cccc(/C=C/c2ccc3cccc(O)c3n2)c1 ): 2.9

Sure, the documented IC50 at 2 days for Oc1ccc(COC2CCCCC2)c2cccnc12 is 6.2

So, Cc1cc(C)n(-c2ccc3cccc(O)c3n2)n1 ? Its IC50 at 2 days was 19

====

Tested on: M. tuberculosis H37Rv
PROTOCOL NOTES: microbe, parasite or virus in culture
Format: cell-based, Mycobacterium tuberculosis
MEASUREMENT CONDITIONS: Mycobacterium tuberculosis, H37RV, 120 h; […]; mean ± SD (n in parentheses); read-out: MIC
Property: MIC; scope: individual molecules
Give just the number in µM; leave the unit off.

Item: Oc1ccc(Br)c2cccnc12 | MIC: 2.9

MIC for Nc1ccc2cccc(O)c2n1 is 4.6

Reported MIC for Oc1cccc2ccc(/C=C/c3ccccc3Cl)nc12 was 5.8

====

System: HepG2 human liver cells
PROTOCOL NOTES: HepG2 cytotoxicity, CellTiter-Glo, 72 hr
MEASUREMENT CONDITIONS: HepG2, 72 h, read-out: HepG2 IC50
pIC50: −log10 of the molar value.
Readings of pIC50 for the listed molecules

molecule [O-][n+]1cccc2cccc(O)c21 , pIC50 observed: > 4.06

The molecule listed as CN(C)c1ccc2cccc(O)c2n1 shows pIC50 equal to < 4.00

Form: molecule = Oc1cccc2ccc(N3CCCCC3)nc12 ; pIC50 = < 4.00
